Exercise: for every item that follows, state its recorded thermal conductivity.
Details: 365 K; 101.33 kPa; Liquid; Laser flash apparatus
Give bare numbers, in W/m/K.

Observe how each entry below is paired with its result.
INSERT INTO measurements (compound, unit_info, value_observed) VALUES
  ('CCCCCCCCCCCC(=O)OCC(COC(=O)CCCCCCCCCCC)OC(=O)CCCCCCCCCCC [1,2,3-propanetriyl tridodecanoate]', 'W/m/K', 0.159),
  ('CCCCCCCC(=O)OCC(COC(=O)CCCCCCC)OC(=O)CCCCCCC [1,2,3-propanetriol trioctanoate]', 'W/m/K', 0.148),
  ('CCCCCCCCCC(=O)OCC(COC(=O)CCCCCCCCC)OC(=O)CCCCCCCCC [1,2,3-propanetriyl tridecanoate]', 'W/m/K', 0.15);

Now let's try a different one.
Name the reported thermal conductivity value associated with the compound CCCCCCCCCCCCCC(=O)OCC(COC(=O)CCCCCCCCCCCCC)OC(=O)CCCCCCCCCCCCC [1,2,3-propanetriyl tri(tetradecanoate)]
0.169

---

Settings: 400 K; 101.33 kPa; Liquid; Laser flash apparatus
Would you kindly list thermal conductivity for each of these compounds?
Give bare numbers, in W/m/K.

INSERT INTO assay_data (compound, value_observed) VALUES
  ('CCCCCCCCCCCC(=O)OCC(COC(=O)CCCCCCCCCCC)OC(=O)CCCCCCCCCCC [1,2,3-propanetriyl tridodecanoate]', 0.154),
  ('CCCCCCCC(=O)OCC(COC(=O)CCCCCCC)OC(=O)CCCCCCC [1,2,3-propanetriol trioctanoate]', 0.144),
  ('CCCCCCCCCC(=O)OCC(COC(=O)CCCCCCCCC)OC(=O)CCCCCCCCC [1,2,3-propanetriyl tridecanoate]', 0.146);

Next:
Reported thermal conductivity, compound CCCCCCCCCCCCCC(=O)OCC(COC(=O)CCCCCCCCCCCCC)OC(=O)CCCCCCCCCCCCC [1,2,3-propanetriyl tri(tetradecanoate)] : ____
0.166

---

Assay: molar heat capacity at constant pressure
Settings: 360 K; 101.33 kPa; Liquid; DSC
measure name: molar heat capacity at constant pressure (J/K/mol)
One number for each entry, in J/K/mol.

Some molecules with known molar heat capacity at constant pressure results, for comparison:
INSERT INTO measurements (molecule, unit_info, value_observed) VALUES
  ('CCCCCCCCCCCC(=O)OCC(COC(=O)CCCCCCCCCCC)OC(=O)CCCCCCCCCCC [1,2,3-propanetriyl tridodecanoate]', 'J/K/mol', 1372),
  ('CCCCCCCCCCCCCC(=O)OCC(COC(=O)CCCCCCCCCCCCC)OC(=O)CCCCCCCCCCCCC [1,2,3-propanetriyl tri(tetradecanoate)]', 'J/K/mol', 1568),
  ('CCCCCCCCCC(=O)OCC(COC(=O)CCCCCCCCC)OC(=O)CCCCCCCCC [1,2,3-propanetriyl tridecanoate]', 'J/K/mol', 1174);

Now consider the entry below.
Return reported molar heat capacity at constant pressure; argument: CCCCCCCC(=O)OCC(COC(=O)CCCCCCC)OC(=O)CCCCCCC [1,2,3-propanetriol trioctanoate]
977.4

---

Conditions: 405 K; 101.33 kPa; Liquid; Laser flash apparatus
Field: thermal conductivity. Provide a value for each of the compounds that follow.
Give bare numbers, in W/m/K.

Please review the entries below; each comes with its answer.
INSERT INTO assay_data (compound, unit_info, value_observed) VALUES
  ('CCCCCCCCCC(=O)OCC(COC(=O)CCCCCCCCC)OC(=O)CCCCCCCCC [1,2,3-propanetriyl tridecanoate]', 'W/m/K', 0.145),
  ('CCCCCCCCCCCC(=O)OCC(COC(=O)CCCCCCCCCCC)OC(=O)CCCCCCCCCCC [1,2,3-propanetriyl tridodecanoate]', 'W/m/K', 0.153),
  ('CCCCCCCCCCCCCC(=O)OCC(COC(=O)CCCCCCCCCCCCC)OC(=O)CCCCCCCCCCCCC [1,2,3-propanetriyl tri(tetradecanoate)]', 'W/m/K', 0.165);

Could you now consider this next compound?
Look up thermal conductivity for this compound: CCCCCCCC(=O)OCC(COC(=O)CCCCCCC)OC(=O)CCCCCCC [1,2,3-propanetriol trioctanoate]
0.144

FYI, the data here is from the NIST ThermoML archive (doi:10.1016/j.jct.2017.07.006).
